B1: HDV Ribozyme (parent)
chain: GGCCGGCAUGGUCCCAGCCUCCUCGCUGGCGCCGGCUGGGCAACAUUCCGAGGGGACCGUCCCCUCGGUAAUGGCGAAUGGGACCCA

variants of: B1; test: self-cleavage, relative activity (ratio to wild type); higher = more cleavage; co-transcriptional
For each entry below, report its self-cleavage value.
Respond using a number only.

QUERY: Note down self-cleavage recorded for G74U C84U
RESULT: 0.213

QUERY: Note down self-cleavage recorded for A51C G73A
RESULT: 0.383

QUERY: Note down self-cleavage recorded for C21U A45U
RESULT: 0.283

QUERY: Note down self-cleavage recorded for U47C A51G
RESULT: 0.969

QUERY: Note down self-cleavage recorded for C4U G35A
RESULT: 0.173

QUERY: Note down self-cleavage recorded for G40C C44U
RESULT: 0.0627

QUERY: Note down self-cleavage recorded for U27A C85U
RESULT: 0.684

QUERY: Note down self-cleavage recorded for G35C A83C
RESULT: 0.162

QUERY: Note down self-cleavage recorded for C49A G76C
RESULT: 1.22

QUERY: Note down self-cleavage recorded for G52U C84U
RESULT: 0.71

QUERY: Note down self-cleavage recorded for G40A G54A
RESULT: 1.04

QUERY: Note down self-cleavage recorded for U37G C64A
RESULT: 0.122

QUERY: Note down self-cleavage recorded for U69C A71U
RESULT: 1.01

QUERY: Note down self-cleavage recorded for C48A C62A
RESULT: 0.878

QUERY: Note down self-cleavage recorded for G55C A77G
RESULT: 1.1

QUERY: Note down self-cleavage recorded for C30U G80A
RESULT: 0.227

QUERY: Note down self-cleavage recorded for G29C C57U
RESULT: 0.0604

QUERY: Note down self-cleavage recorded for G35A G82U
RESULT: 0.241

QUERY: Note down self-cleavage recorded for C22U C57A
RESULT: 0.846

QUERY: Note down self-cleavage recorded for C41G G73C
RESULT: 0.877

QUERY: Note down self-cleavage recorded for C41U C49A
RESULT: 0.563

QUERY: Note down self-cleavage recorded for G68C G81U
RESULT: 0.123

Data origin: the RNAGym collection of RNA variant scans (doi:10.7554/elife.80360)
